Where do these numbers come from? They come from patent US3931262A.

- Tested on: Streptococcus agalactiae M100
- method_description: Microbiological test
- Assay type: cell-based
quantity_kind: Activity range (ppm)
Your answer should be a plain number; it is taken to be in ppm.

Known Activity range results, listed for orientation:
CCC[CH2][Sn]([CH2]CCC)([CH2]CCC)[S]CC(=O)[O-].OCC[NH+](CCO)CCO: 30
O=S(=O)([O-])CCC[S][Sn]([c]1ccccc1)([c]1ccccc1)[c]1ccccc1.[Na+]: 3
CCC[CH2][Sn]([CH2]CCC)([CH2]CCC)[S]CCC(=O)[O-].OCC[NH+](CCO)CCO: 30

Please turn your attention to the following entry.
The compound listed as CCC[CH2][Sn]([CH2]CCC)([CH2]CCC)[S]CC(=O)N(CCO)CCO has a reported Activity range of 3
